target: T1, mouse α4β7 integrin on TK1 cells (mouse, UniProt Q00651 41-1039; P26011 20-806); assay: TK1 cell adhesion to MAdCAM-1
T1 construct: whole, on cells; also called α4β7 cell (Mu); Cell Adhesion α4β7 Mouse
T1 sequence (Q00651 41-1039, chain 1 of 2): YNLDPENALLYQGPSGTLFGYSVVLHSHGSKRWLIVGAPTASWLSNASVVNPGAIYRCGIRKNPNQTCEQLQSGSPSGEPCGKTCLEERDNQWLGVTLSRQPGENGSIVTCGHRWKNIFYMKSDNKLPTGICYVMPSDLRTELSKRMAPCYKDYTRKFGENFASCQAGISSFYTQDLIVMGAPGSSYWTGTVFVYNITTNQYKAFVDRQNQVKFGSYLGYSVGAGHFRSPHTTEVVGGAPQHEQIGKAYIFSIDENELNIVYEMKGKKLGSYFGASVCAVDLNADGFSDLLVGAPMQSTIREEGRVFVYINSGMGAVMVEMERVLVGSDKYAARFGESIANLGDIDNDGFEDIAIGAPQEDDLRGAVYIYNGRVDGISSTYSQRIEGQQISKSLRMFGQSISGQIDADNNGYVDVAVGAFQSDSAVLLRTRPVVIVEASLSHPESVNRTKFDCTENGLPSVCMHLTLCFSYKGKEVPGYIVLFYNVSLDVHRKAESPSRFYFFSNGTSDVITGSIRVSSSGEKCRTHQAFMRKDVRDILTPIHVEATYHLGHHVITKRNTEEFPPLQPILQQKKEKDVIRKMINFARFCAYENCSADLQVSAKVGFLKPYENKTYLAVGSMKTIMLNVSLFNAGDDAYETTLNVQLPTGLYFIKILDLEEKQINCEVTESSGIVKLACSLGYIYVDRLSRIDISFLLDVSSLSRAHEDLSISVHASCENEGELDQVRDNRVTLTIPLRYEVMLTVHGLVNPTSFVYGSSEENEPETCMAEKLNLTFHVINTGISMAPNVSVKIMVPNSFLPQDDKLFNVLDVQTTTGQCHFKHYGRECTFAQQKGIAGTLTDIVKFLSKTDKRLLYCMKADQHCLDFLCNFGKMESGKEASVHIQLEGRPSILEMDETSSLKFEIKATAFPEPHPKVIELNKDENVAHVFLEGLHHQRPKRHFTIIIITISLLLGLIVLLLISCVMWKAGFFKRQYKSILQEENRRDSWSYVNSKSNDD
T1 sequence (P26011 20-806, chain 2 of 2): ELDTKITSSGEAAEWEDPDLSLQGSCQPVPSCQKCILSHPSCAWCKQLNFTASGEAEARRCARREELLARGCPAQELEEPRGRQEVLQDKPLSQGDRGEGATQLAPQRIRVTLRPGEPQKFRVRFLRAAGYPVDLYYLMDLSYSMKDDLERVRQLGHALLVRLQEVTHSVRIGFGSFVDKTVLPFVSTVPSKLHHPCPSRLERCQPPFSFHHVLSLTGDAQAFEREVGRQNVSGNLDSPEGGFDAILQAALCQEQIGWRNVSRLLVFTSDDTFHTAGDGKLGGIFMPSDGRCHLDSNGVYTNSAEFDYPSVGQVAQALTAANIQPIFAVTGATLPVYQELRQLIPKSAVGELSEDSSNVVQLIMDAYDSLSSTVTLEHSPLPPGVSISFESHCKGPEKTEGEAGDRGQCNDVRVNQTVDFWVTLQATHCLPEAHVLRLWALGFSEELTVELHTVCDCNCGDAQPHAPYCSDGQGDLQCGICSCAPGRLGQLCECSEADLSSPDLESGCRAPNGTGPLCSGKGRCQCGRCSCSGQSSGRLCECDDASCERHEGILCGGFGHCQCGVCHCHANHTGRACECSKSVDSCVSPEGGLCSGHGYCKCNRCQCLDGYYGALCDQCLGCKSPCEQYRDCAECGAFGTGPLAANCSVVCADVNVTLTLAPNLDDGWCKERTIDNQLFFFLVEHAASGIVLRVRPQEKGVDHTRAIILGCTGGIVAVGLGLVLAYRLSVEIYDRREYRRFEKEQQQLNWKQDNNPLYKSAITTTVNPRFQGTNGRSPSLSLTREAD
Bridge positions count the residues as written; N and C are the ends. Square brackets hold non-standard residues; d marks the D form. NMeR = CN[C@@H](CCCNC(=N)N)C(=O)O; Pen = CC(C)(S)[C@H](N)C(=O)O; dNMeK = CN[C@H](CCCCN)C(=O)O
Exercise: for every item that follows, state its recorded pIC50.
Give bare numbers, as −log10 of the molar value.

Some entries whose results are on file:
{"columns": ["binder", "pIC50"],
 "data": [
  ["Ac-C[NMeR]SDTL[Pen][dK]-NH2 (disulfide 1-7; also: homodimer via IDA linker on D-Lys8 side chains, also called peptide 203) [SEQ ID NO: 203]", 6.20],
  ["Ac-[Pen][NMeR]SDTL[Pen]W[dE][dK]-OH (disulfide 1-7; not fully specified (residue 10); printed as (Ac Pen N-Me-R S D T L Pen W e k OH)2 DIG, disulfide Pen-Pen; also: dimer, two subunits joined by DIG linker, also called peptide 216) [SEQ ID NO: 216]", 9.00]
]}

# input for lookup
Reported pIC50 ( Ac-[Pen][NMeR]SDTL[Pen]WE[dNMeK]-NH2 (disulfide 1-7; not fully specified (residue 10); printed as (Ac Pen N-Me-R S D T L Pen W E N-Me-k NH2)2 DIG, disulfide Pen-Pen; also: dimer, two subunits joined by DIG linker, also called peptide 214) [SEQ ID NO: 214] ) = 8.96
